- tested on: Hepatocyte growth factor receptor (Homo sapiens, UniProt P08581)
- Sequence (P08581 whole entry): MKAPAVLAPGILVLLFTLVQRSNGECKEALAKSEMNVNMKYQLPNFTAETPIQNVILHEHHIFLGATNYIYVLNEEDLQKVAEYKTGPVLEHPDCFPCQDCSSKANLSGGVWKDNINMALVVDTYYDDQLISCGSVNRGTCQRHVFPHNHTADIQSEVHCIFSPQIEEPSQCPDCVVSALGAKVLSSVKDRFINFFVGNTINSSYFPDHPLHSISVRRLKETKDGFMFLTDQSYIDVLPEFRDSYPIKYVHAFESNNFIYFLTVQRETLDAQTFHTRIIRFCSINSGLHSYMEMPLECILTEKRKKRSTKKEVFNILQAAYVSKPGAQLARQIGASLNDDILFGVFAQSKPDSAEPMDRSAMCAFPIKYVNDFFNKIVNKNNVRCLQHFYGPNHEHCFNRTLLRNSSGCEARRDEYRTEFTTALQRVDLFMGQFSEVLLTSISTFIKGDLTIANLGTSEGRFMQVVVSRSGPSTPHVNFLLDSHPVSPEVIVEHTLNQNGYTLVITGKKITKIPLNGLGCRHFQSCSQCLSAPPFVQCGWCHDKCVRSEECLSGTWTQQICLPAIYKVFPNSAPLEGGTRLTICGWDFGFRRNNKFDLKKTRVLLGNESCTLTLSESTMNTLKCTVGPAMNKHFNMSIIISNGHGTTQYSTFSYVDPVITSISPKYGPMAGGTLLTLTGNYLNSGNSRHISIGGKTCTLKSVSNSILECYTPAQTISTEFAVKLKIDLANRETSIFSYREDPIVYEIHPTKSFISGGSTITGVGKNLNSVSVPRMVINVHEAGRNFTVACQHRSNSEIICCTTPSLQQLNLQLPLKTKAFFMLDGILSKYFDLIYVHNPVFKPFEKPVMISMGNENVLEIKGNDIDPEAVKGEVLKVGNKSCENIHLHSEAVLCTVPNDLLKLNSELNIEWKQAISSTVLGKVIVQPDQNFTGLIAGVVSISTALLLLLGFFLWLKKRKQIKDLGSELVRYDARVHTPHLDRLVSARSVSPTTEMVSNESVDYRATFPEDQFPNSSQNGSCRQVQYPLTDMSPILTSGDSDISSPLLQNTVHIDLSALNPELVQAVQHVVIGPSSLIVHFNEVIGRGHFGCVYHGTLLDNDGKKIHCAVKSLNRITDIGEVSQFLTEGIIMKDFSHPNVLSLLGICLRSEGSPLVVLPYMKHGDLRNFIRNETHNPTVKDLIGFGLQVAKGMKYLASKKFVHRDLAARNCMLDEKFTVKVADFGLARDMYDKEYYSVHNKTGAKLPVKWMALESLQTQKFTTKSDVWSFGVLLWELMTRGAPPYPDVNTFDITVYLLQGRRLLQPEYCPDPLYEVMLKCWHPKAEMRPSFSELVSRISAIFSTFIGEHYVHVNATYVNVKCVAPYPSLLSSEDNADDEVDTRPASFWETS
Param label: returns MET when Kd < 800 nM, returns NOT MET otherwise, including exact equality.

>  <molecule>
CC(c1ccccc1)n1cc(-c2cccc3c(C#N)n[nH]c23)c(=O)[nH]c1=O (stereo not given)

>  <label class>
MET

$$$$
>  <molecule>
CC(c1ccccc1)n1cc(-c2ccccc2)c(=O)[nH]c1=O (stereo not given)

>  <label class>
NOT MET

$$$$
>  <molecule>
CC(c1cccc(-c2cc[nH]n2)c1)n1cc(-c2cc(F)cc(F)c2)c(=O)[nH]c1=O (stereo not given)

>  <label class>
NOT MET

$$$$
>  <molecule>
O=c1[nH]c(=O)n(Cc2ccccc2)cc1-c1cc(F)cc(F)c1

>  <label class>
NOT MET

$$$$
>  <molecule>
Cc1n[nH]c2c(-c3cn(C(C)c4ccccc4)c(=O)[nH]c3=O)cccc12 (stereo not given)

>  <label class>
MET

$$$$
>  <molecule>
CC(c1cccc(Cl)c1)n1cc(-c2cc(F)cc(F)c2)c(=O)[nH]c1=O (stereo not given)

>  <label class>
NOT MET

$$$$
>  <molecule>
CC(c1ccccc1Cl)n1cc(-c2cc(F)cc(F)c2)c(=O)[nH]c1=O (stereo not given)

>  <label class>
NOT MET

$$$$
>  <molecule>
CC(c1ccccc1)n1cc(-c2cc(F)cc(F)c2)c(=O)[nH]c1=O (stereo not given)

>  <label class>
NOT MET

$$$$
>  <molecule>
CC(c1ccccc1)n1cc(-c2cc(F)cc3cn[nH]c23)c(=O)[nH]c1=O (stereo not given)

>  <label class>
MET

$$$$
